test system: Rattus norvegicus; test: Gastroprotective activity against ethanol-induced ulceritis in 48 hrs fasted Wistar rat at 25 mg/kg, po pretreated 1 hr before ethanol challenge followed by pylorus ligation measured after 4 hrs; type: functional, organism-based; design: dose 25 mg/kg
Active and inactive are the calls of the source. The rule behind the calls is not given here.
QUANTITY NAME: Activity

• COc1ccc(-c2cc(=O)c3c(O)cc(OC)cc3o2)cc1 = inactive
• COc1c(O)cc2c(c1O)C(=O)C[C@@H](c1ccccc1)O2 = Active
• COc1cc(O)c2c(=O)cc(-c3ccccc3)oc2c1 = inactive
• COc1c(O)cc2oc(-c3ccccc3)cc(=O)c2c1O = Active
• COc1cc(O)c2c(=O)cc(-c3c(OC)cccc3O[C@H]3O[C@@H](CO)[C@H](O)[C@@H](O)[C@@H]3O)oc2c1 = inactive
• O=c1cc(-c2ccccc2)oc2cc(O)cc(O)c12 = Active
